test system: panel of 55 breast cancer cell lines; assay: Cell growth inhibition assay (Cell Titer Glo, 72 h, 9 doses; GI50, TGI, LC50); type: cell-based, human; conditions: Homo sapiens, HCC1143, HCC1143 cell line; censored GI50 values; read-out: GI50 (converted)
measured-property: GI50 (nM)
Numbers only, in nM.

COc1cccc2c1C(=O)c1c(O)c3c(c(O)c1C2=O)C[C@@](O)(C(=O)CO)C[C@@H]3O[C@H]1C[C@H](N)[C@H](O)[C@H](C)O1
525

Dear colleague, could you send me GI50 for each of the items below? Thanks.
1. CC(=O)O[C@H]1C(=O)[C@@]2(C)[C@H]([C@H](OC(=O)c3ccccc3)[C@]3(O)C[C@H](OC(=O)[C@H](O)[C@@H](NC(=O)c4ccccc4)c4ccccc4)C(C)=C1C3(C)C)[C@]1(OC(C)=O)CO[C@@H]1C[C@@H]2O
2. CCN(CC)CCCCNc1ncc2cc(-c3cc(OC)cc(OC)c3)c(NC(=O)NC(C)(C)C)nc2n1
3. O=C1c2ccccc2-[n+]2ccc3c([nH]c4ccccc43)c21
4. CCNCCCNC/C=C\CNCCCNCC
5. COc1cc(Nc2c(C#N)cnc3cc(OCCCN4CCN(C)CC4)c(OC)cc23)c(Cl)cc1Cl
6. Cc1[nH]c2ccccc2c1CCNCc1ccc(/C=C/C(=O)NO)cc1

17
13500
275
112000
4900
83.2

----------
Could you please report measured GI50 for the items listed next?
test system: panel of 55 breast cancer cell lines; experiment: Cell growth inhibition assay (Cell Titer Glo, 72 h, 9 doses; GI50, TGI, LC50); type: cell-based, human; details: Homo sapiens, SUM149PT, cell line SUM149PT; read-out: GI50 (converted)
Give bare numbers, in nM.

COC1=C2C[C@@H](C)C[C@H](OC)[C@H](O)[C@@H](C)/C=C(\C)[C@H](OC(N)=O)[C@@H](OC)/C=C\C=C(/C)C(=O)NC(=CC1=O)C2=O [Geldanamycin]
6.03
CC(=O)O[C@H]1C(=O)[C@@]2(C)[C@H]([C@H](OC(=O)c3ccccc3)[C@]3(O)C[C@H](OC(=O)[C@H](O)[C@@H](NC(=O)c4ccccc4)c4ccccc4)C(C)=C1C3(C)C)[C@]1(OC(C)=O)CO[C@@H]1C[C@@H]2O [Paclitaxel]
9.33
CCC1=C[C@@H]2CN(C1)Cc1c([nH]c3ccccc13)[C@@](C(=O)OC)(c1cc3c(cc1OC)N(C)[C@H]1[C@@](O)(C(=O)OC)[C@H](OC(C)=O)[C@]4(CC)C=CCN5CC[C@]31[C@@H]54)C2 [Vinorelbine]
12.3

List GI50 for every entry below, keeping the order given.
1. CN(C)C/C=C/C(=O)Nc1cc2c(Nc3ccc(F)c(Cl)c3)ncnc2cc1O[C@H]1CCOC1 [BIBW 2992]
2. Cn1c(=O)n(-c2ccc(C(C)(C)C#N)cc2)c2c3cc(-c4cnc5ccccc5c4)ccc3ncc21 [BEZ235]
3. COc1cccc2c1C(=O)c1c(O)c3c(c(O)c1C2=O)C[C@@](O)(C(=O)CO)C[C@@H]3O[C@H]1C[C@H](N)[C@@H](O)[C@H](C)O1 [Epirubicin]
4. CC(=O)O[C@@]12CO[C@@H]1C[C@H](O)[C@@]1(C)C(=O)[C@H](O)C3=C(C)[C@@H](OC(=O)[C@H](O)[C@@H](NC(=O)OC(C)(C)C)c4ccccc4)C[C@@](O)([C@@H](OC(=O)c4ccccc4)[C@H]21)C3(C)C [Docetaxel]
5. COc1cc2ncnc(Nc3ccc(F)c(Cl)c3)c2cc1OCCCN1CCOCC1 [Gefitinib]

74.1
269
219
1.74
2880

----------
tested on: panel of 55 breast cancer cell lines; test: Cell growth inhibition assay (Cell Titer Glo, 72 h, 9 doses; GI50, TGI, LC50); format: cell-based, human; conditions: HCC1954 cell line; censored GI50 values; value is the negative log10 of mol/L
measured-property: GI50
One number for each entry.

Reference set (6 entries):
CC(/C=C/C(=O)NO)=C\[C@@H](C)C(=O)c1ccc(N(C)C)cc1 [Trichostatin A]
4.95
N#Cc1c(NC(=O)c2cccc3ccccc23)sc2c1CCCC2 [TCS JNK 5a]
5.90
NC(=O)Nc1sc(-c2ccc(F)cc2)cc1C(N)=O [TPCA-1]
4.77
CC(C)[C@H](CO)Nc1nc(Nc2cccc(Cl)c2)c2ncn(C(C)C)c2n1 [Purvalanol A]
4.43
O=c1[nH]c2ccccc2n1C1CCN(Cc2ccc(-c3nc4cc5[nH]cnc5cc4nc3-c3ccccc3)cc2)CC1 [Sigma AKT1-2 inhibitor]
5.08
Cc1cc(C(C)Nc2ccccc2)c2nc(N3CCOCC3)cc(=O)n2c1 (stereo not shown) [TGX-221]
4.79

Would you mind listing GI50 for each of the following compounds?
1. CC(=O)Nc1cccc(-n2c(=O)n(C3CC3)c(=O)c3c(Nc4ccc(I)cc4F)n(C)c(=O)c(C)c32)c1.C[S+](C)[O-] [GSK1120212B]
2. Cc1cc(C(=O)N2CCN(c3cccc(Cl)c3)CC2)n(-c2ccccc2)n1 [XRP44X]
3. O=C1C(Cl)=C(NCCN2CCOCC2)C(=O)c2ncccc21 [NSC 663284]
4. O=C1NC(=O)/C(=C/c2ccc(-c3ccc(F)cc3O)o2)S1 [AS-252424]

6.53
6.30
5.22
5.46

----------
system: panel of 55 breast cancer cell lines; assay: Cell growth inhibition assay (Cell Titer Glo, 72 h, 9 doses; GI50, TGI, LC50); type: cell-based, human; conditions: SUM1315MO2 cell line; censored GI50 values; value is the negative log10 of mol/L
Mark criterion met for GI50 under 5, criterion not met if at or over.

See these solved cases before continuing.
CC(=O)Nc1cccc(-n2c(=O)n(C3CC3)c(=O)c3c(Nc4ccc(I)cc4F)n(C)c(=O)c(C)c32)c1.C[S+](C)[O-] [GSK1120212B]
criterion not met
N#Cc1c(NC(=O)c2cccc3ccccc23)sc2c1CCCC2
criterion not met
O=c1[nH]c2ccccc2n1C1CCN(Cc2ccc(-c3nc4cc5[nH]cnc5cc4nc3-c3ccccc3)cc2)CC1
criterion not met
CC(C)Oc1ccc(C(=O)N[C@H](CNC(=O)CN(C)C)Cc2ccc(-c3cn4cccc([C@H](C)O)c4n3)cc2)cc1Cl
criterion not met
COc1cc2ncnc(Nc3cccc(Cl)c3)c2cc1OC
criterion not met
C=CCNC1=C2C[C@@H](C)C[C@H](OC)[C@H](O)[C@@H](C)/C=C(\C)[C@H](OC(N)=O)[C@@H](OC)/C=C\C=C(/C)C(=O)NC(=CC1=O)C2=O
criterion not met
C[C@@H](Oc1cc(-n2cnc3ccc(CN4CCN(C)CC4)cc32)sc1C(N)=O)c1ccccc1C(F)(F)F [GSK461364A]
criterion not met
CCn1cc(-c2ccnc3[nH]c(-c4cccc(CN(C)C)c4)cc23)c(-c2ccc(NC(=O)N(C)C)cc2)n1
criterion not met
Cc1cc(Nc2cc(N3CCN(C)CC3)nc(Sc3ccc(NC(=O)C4CC4)cc3)n2)n[nH]1
criterion not met
CC(/C=C/C(=O)NO)=C\[C@@H](C)C(=O)c1ccc(N(C)C)cc1
criterion met

Consider the record given below.
In the record for `O=C1NC(=O)/C(=C/c2ccc(-c3ccc(F)cc3O)o2)S1` , is GI50 less than 5? criterion met

----------
tested on: panel of 55 breast cancer cell lines; assay: Cell growth inhibition assay (Cell Titer Glo, 72 h, 9 doses; GI50, TGI, LC50); format: cell-based, human; details: Homo sapiens, BT-20, cell line BT20; read-out: GI50 (converted)
Where a name gives a salt, the structure may show the parent alone.
Provide the recorded GI50 for the entries that follow.
# answer = value followed by unit

Completed entries (count: 3):
NS(=O)(=O)OC[C@@H]1C[C@@H](n2ccc3c(N[C@H]4CCc5ccccc54)ncnc32)C[C@@H]1O
2.75 µM
CNC(=O)c1cc(Oc2ccc(NC(=O)Nc3ccc(Cl)c(C(F)(F)F)c3)cc2)ccn1
63.1 µM
C#Cc1cccc(Nc2ncnc3cc(OCCOC)c(OCCOC)cc23)c1
2 µM

Count: 8. Required value per item: GI50.
1. CN(Cc1cnc2nc(N)nc(N)c2n1)c1ccc(C(=O)N[C@@H](CCC(=O)O)C(=O)O)cc1 [Methotrexate]
2. COc1cc(Nc2c(C#N)cnc3cc(OCCCN4CCN(C)CC4)c(OC)cc23)c(Cl)cc1Cl
3. CN(C)C/C=C/C(=O)Nc1cc2c(Nc3ccc(F)c(Cl)c3)ncnc2cc1O[C@H]1CCOC1
4. Cc1[nH]c2ccccc2c1CCNCc1ccc(/C=C/C(=O)NO)cc1
5. Cn1c(=O)n(-c2ccc(C(C)(C)C#N)cc2)c2c3cc(-c4cnc5ccccc5c4)ccc3ncc21
6. CCCCCN(C)CCC(O)(P(=O)(O)O)P(=O)(O)O [Ibandronate sodium salt]
7. Cn1cnc2c(F)c(Nc3ccc(Br)cc3Cl)c(C(=O)NOCCO)cc21
8. CS(=O)(=O)CCNCc1ccc(-c2ccc3ncnc(Nc4ccc(OCc5cccc(F)c5)c(Cl)c4)c3c2)o1

1. 331 µM
2. 1.38 µM
3. 2.75 µM
4. 0.389 µM
5. 3.8 µM
6. 20.4 µM
7. 50.1 µM
8. 16.6 µM
